Target: mGluR2 receptor (metabotropic glutamate receptor 2) (Homo sapiens)
Construct: expressed in transfected cells
Experiment: mGluR2 Potentiator Screen, FLIPR, EC10-EC20 glutamate challenge
Type: cell-based
pEC50: −log10 of the molar value.
measurement_label: pEC50

IN: Given the compound C[C@@H]1CN(Cc2nc3ncccc3n2C)CC[C@@H]1c1ccc2c(c1)CCCC2 (relative stereo) , what is its reported pEC50?
OUT: 6.21

IN: Given the compound C#CCOc1ccc(Cl)cc1C1CCN(Cc2nc3ncccc3n2C)CC1 , what is its reported pEC50?
OUT: 7.14

1: C[C@@H]1CN(Cc2nc3cnccc3n2C)CC[C@@H]1c1cc(F)c(F)cc1F (single isomer, unassigned) [compound 225]
2: Cc1cccc(C2CCN(Cc3nc4ncccc4n3C)CC2)c1
3: COc1ccccc1C1CCN(Cc2nc3cccnc3n2C)CC1C (centres unmarked)
IN: Sort these compounds on pEC50 so the largest reading comes first. Answer format: the labels, in the requested order.
OUT: 1, 3, 2
(1: 7.02, 3: 6.46, 2: 6.21)

---

Target: mGluR2 receptor (metabotropic glutamate receptor 2) (Homo sapiens, UniProt Q14416)
Construct: expressed in transfected cells
Sequence (Q14416 19-872, species assumed): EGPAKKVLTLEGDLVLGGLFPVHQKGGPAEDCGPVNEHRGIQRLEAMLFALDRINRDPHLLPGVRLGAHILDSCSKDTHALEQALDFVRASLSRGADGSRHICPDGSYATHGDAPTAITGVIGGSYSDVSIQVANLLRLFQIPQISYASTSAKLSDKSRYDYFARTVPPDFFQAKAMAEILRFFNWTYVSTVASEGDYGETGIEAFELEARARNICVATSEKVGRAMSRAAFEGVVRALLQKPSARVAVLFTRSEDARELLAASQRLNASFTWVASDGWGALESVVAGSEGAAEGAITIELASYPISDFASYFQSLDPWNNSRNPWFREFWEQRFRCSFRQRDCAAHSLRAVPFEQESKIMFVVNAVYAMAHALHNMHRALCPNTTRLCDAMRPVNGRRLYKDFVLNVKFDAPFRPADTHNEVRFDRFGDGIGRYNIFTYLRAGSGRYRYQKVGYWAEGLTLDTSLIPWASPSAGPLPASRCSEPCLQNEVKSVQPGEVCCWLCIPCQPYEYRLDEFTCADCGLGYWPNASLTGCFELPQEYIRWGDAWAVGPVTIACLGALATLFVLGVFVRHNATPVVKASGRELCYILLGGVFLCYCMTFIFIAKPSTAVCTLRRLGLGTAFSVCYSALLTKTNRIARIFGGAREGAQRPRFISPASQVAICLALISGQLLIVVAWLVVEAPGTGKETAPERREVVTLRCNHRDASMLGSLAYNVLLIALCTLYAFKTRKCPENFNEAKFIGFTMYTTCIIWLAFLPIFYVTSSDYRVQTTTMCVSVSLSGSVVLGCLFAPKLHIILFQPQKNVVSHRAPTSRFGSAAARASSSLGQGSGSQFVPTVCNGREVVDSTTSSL
Test: mGluR2 Potentiator Screen, FLIPR, EC10-EC20 glutamate challenge
Format: cell-based
measurement_label: EC50 (µM)

Record excerpt, results attached:
IN: Given the compound C[C@@H]1CN(Cc2nc3ncccc3n2C)CC[C@@H]1c1ccc(OC(F)F)cc1Cl (relative stereo) [compound 203] , what is its reported EC50?
OUT: 0.0436

IN: Given the compound C[C@@H]1CN(Cc2nc3cnccc3n2C)CC[C@@H]1c1ccc(Cl)cc1C(F)(F)F (relative stereo) [compound 208] , what is its reported EC50?
OUT: 0.11

P: COc1ccccc1C1CCN(Cc2nc3ncccc3n2C)CC1 [compound 51]
Q: COc1cc(F)ccc1[C@H]1CCN(Cc2nc3ncccc3n2C)C[C@H]1C (relative stereo) [compound 132]
R: COc1cc(C(F)(F)F)ccc1C1CCN(Cc2nc3cnccc3n2C)CC1 [compound 63]
IN: Sort these compounds on EC50 so the largest reading comes first. Answer format: the labels, in the requested order.
OUT: P, R, Q
(P: 1.54 µM, R: 0.834 µM, Q: 0.0785 µM)

---

Target: mGluR2 receptor (metabotropic glutamate receptor 2) (Homo sapiens, UniProt Q14416)
Construct: expressed in transfected cells
Test: mGluR2 Potentiator Screen, FLIPR, EC10-EC20 glutamate challenge
Assay type: cell-based
pEC50: −log10 of the molar value.
measurement_label: pEC50

A: Cn1c(CN2CCC(c3ccc(F)cc3F)CC2)nc2ncccc21
B: C[C@@H]1CN(Cc2nc3cnccc3n2C)CC[C@@H]1c1ccc(C(F)(F)F)cc1Cl (single isomer, unassigned) [compound 171]
IN: Return label of the item with the larger pEC50. Candidates: A , B . To answer, give the label that identifies your chosen option.
OUT: A
(A: 6.60, B: 5.82)

P: COc1cc(OC(F)(F)F)ccc1[C@H]1CCN(Cc2nc3ncccc3n2C)C[C@H]1C (relative stereo)
Q: CC(C)Oc1ccc([C@H]2CCN(Cc3nc4ncccc4n3C)C[C@H]2C)cc1F (relative stereo)
IN: Return label of the item with the larger pEC50. Candidates: P , Q . To answer, give the label that identifies your chosen option.
OUT: P
(P: 7.23, Q: 6.24)
